Test system: PXR homodimer (NR concentration 270 nM)
Experiment: PBM binding z-score (relative to random genomic background probes); higher = stronger binding; sequences stand for … in GC…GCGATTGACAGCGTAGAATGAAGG
Think of -0.08 as a floor: if PBM binding z-score stands on it or above, it is 1; beneath it, 0.

>  <ordered_residues>
CCTGCTACGTCAATGGTCAGCTAAAGCAGCTCGC

>  <class_assignment>
0

$$$$
>  <ordered_residues>
CTCGAAAGGTGGGTTGAGGTGAGTATACGGATAA

>  <class_assignment>
1

$$$$
>  <ordered_residues>
ATATGTAGGTTACATCCGGGTCCTTCAGGCTATG

>  <class_assignment>
1

$$$$
>  <ordered_residues>
CGTCCAAGGTCAGCAGGTCAATGAAAGCGACGTG

>  <class_assignment>
1

$$$$
>  <ordered_residues>
GCAGACCGGTGAAACGCAGGTAACTCAGGGTGGC

>  <class_assignment>
0

$$$$
>  <ordered_residues>
ATATGTAGGTGAGCTGGGGTCATTCAGACTAGGC

>  <class_assignment>
1

$$$$
>  <ordered_residues>
ATATGTAGGTTATCGGGGCATTCAGTTTGCGCAT

>  <class_assignment>
1

$$$$
>  <ordered_residues>
CCTAGTTGGTCAAGGTCACACAGGCTATAGGTAC

>  <class_assignment>
1

$$$$

Q. Decide: PBM binding z-score of CCGACTGGGGTATAAGGTTACCATAAGCCAGCCC >= -0.08?
A. 0

Q. Would you say CCAGACAGGTGAGAAGGTTACTCAGCCTCGATTA shows PBM binding z-score at minimum -0.08?
A. 1

Q. Would you say TAGCCCAGGTCATTGGGCCAGTATAGTACGCATC shows PBM binding z-score at minimum -0.08?
A. 1

Q. Please tell me: is the sequence ATATGTAGGTTAAGAGTCATTCAGGTTGGTTCGC at or over -0.08 in terms of PBM binding z-score?
A. 1

Q. Could you please find out whether CCTCGGAGGACAGAAGGTCAGAGCGGTCCGCTTT has PBM binding z-score that meets -0.08 or exceeds it?
A. 0

Q. Hello, I need to know if GCTTACGGCTCAAAGGTTATAGCATGAATAGAAT has measured PBM binding z-score not below -0.08. Thanks!
A. 0

Taken from the supplement of paper PMC6555819.
